# Assay Method Text: Cytotoxicity against human THP1 cells after 48 hrs
# Type: cell-based
# Condition Description: THP-1 cells, read-out: ID50
Quick reference for CC50 at 48 h among some compounds

Guide cases for CC50 at 48 h, answers given:
[[record]]
compound = "CNC(=S)N/N=C(\\C)c1ccc([N+](=O)[O-])cc1"
meas_value = "> 400 µM"

[[record]]
compound = "C/C(=N\\NC(=S)N(C)C)c1ccc([N+](=O)[O-])cc1"
meas_value = "> 400 µM"

[[record]]
compound = "O=C(Cn1ccnc1[N+](=O)[O-])NCc1ccccc1"
meas_value = "> 300 µM"


Kindly review the next compound as well.
Please report CC50 at 48 h for the following compound: CC1CS(=O)(=O)CCN1/N=C/c1ccc([N+](=O)[O-])o1 (centres undefined)
> 300 µM
